Exercise: for every item that follows, state its recorded pKd.
Target: T1, Human CD2 (human, UniProt P06729 25-209)
T1 construct: also called recombinant human CD2; CD2 extracellular domain
T1 sequence: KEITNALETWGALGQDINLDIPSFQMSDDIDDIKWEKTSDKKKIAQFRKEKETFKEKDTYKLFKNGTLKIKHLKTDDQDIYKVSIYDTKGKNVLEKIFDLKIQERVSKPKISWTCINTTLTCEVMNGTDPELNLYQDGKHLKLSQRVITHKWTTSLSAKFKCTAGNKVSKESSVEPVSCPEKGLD
Assay: isothermal titration calorimetry; 100 uM CD2 titrated into 10 uM CD58 variant in HBS
The scale used: pKd is minus the common logarithm of the concentration in molar units.

// query Need pKd of CD58_IgV (ligand, Recombinant, made in HEK293 cells; also called CD58 domain 1; IgV domain of CD58 (wild type)) SQQIYGVVYGNVTFHVPSNVPLKEVLWKKQKDKVAELENSEFRAFSSFKNRVYLDTVSGSLTIYNLTSSDEDEYEMESPNITDTMKFFLYVLESGGGGSHHHHHHHH , thanks.
// result 6.21

// query Could you share which pKd value was measured for IgV V54C_G88C (ligand, Disulfide-stabilised variant) SQQIYGVVYGNVTFHVPSNVPLKECLWKKQKDKVAELENSEFRAFSSFKNRVYLDTVSCSLTIYNLTSSDEDEYEMESPNITDTMKFFLYVLESGGGGSHHHHHHHH ?
// result 6.22

// query Name the reported pKd value associated with the binder IgV V45C_M105C (ligand, Disulfide-stabilised variant) SQQIYGVVYGNVTFHCPSNVPLKEVLWKKQKDKVAELENSEFRAFSSFKNRVYLDTVSGSLTIYNLTSSDEDEYECESPNITDTMKFFLYVLESGGGGSHHHHHHHH
// result 6.06

// query Name the reported pKd value associated with the binder IgV V45C_M114C (ligand, Disulfide-stabilised variant) SQQIYGVVYGNVTFHCPSNVPLKEVLWKKQKDKVAELENSEFRAFSSFKNRVYLDTVSGSLTIYNLTSSDEDEYEMESPNITDTCKFFLYVLESGGGGSHHHHHHHH
// result 6.42
